system: HL-60(TB) leukemia; assay: NCI-60 one-dose screen, 48 h (100 = growth as untreated, 0 = no growth, -100 = all killed); conditions: 10 µM unless noted
The panel holds about 83,000 compounds, 20% with a hit somewhere; the sample as a whole holds those more often.
Provide the reported growth of each item.
Give bare numbers, in %.

Some compounds with recorded growth:
Cc1ccc(NS(=O)(=O)c2ccc3c(c2)C2OCCC2C(c2ccc(C(=O)C(C)C)cc2)N3)cc1C (stereo unspecified)	20.4
C=CC(=O)N1CCC(Oc2cc3c(Nc4ccc(Cl)c(Cl)c4F)ncnc3cc2OC)CC1	24.7
Clc1ccc(SSc2ccc(Cl)cc2)cc1	102
N/C(=N\c1nc2ccccc2[nH]1)NC(=O)Cc1cccc2ccccc12	82.4
C/C(=N\NC(N)=S)C(C)(C)O	102

// below: growth requested for another compound
State the recorded growth for this entry: `COc1cc(N2C(=O)C=CC2=O)ccc1N1C(=O)C=CC1=O` 82.9

----------
system: BT-549 breast; assay: NCI-60 one-dose screen, 48 h (100 = growth as untreated, 0 = no growth, -100 = all killed); conditions: 10 µM
The panel holds about 83,000 compounds, 20% with a hit somewhere; the sample as a whole holds those more often.
metric: growth (%)
Numbers only, in %.

Some compounds with recorded growth:
CC1([N+](=O)[O-])COP(=O)(Nc2ccc(F)cc2)OC1 (stereo not given)	96.8
CC(=O)O[C@H]1CCC2C3CCC4=C/C(=N/O)CCC4(C)C3CCC21C (stereo not given in full)	84.9
O=C(O)C1[O][Sb][O]C1C(=O)O (stereo not given)	84.6
CC[C@@H](C)/C=C(C)/C=C/C(=O)c1c(O)c(-c2ccc(O)cc2)cn(O)c1=O	18
CC(C)(O)/C=C/C(=O)[C@](C)(O)[C@H]1[C@H](O)C[C@@]2(C)[C@@H]3CC=C4[C@@H](C=C(O)C(=O)C4(C)C)[C@]3(C)C(=O)C[C@]12C	-60.1

Working through the 2 compounds below one at a time, give growth for each.
1. CCC[CH2][Sn]([CH2]CCC)([CH2]CCC)[O]C(=O)CC
2. Oc1c(Br)cc(Br)cc1Br.[Cu+2]

-98.5
122

Working through the 3 compounds below one at a time, give growth for each.
1. O=CN1N=C(c2ccc3c(c2)OCO3)CC1c1sc(N(CCCl)CCCl)nc1Cl (stereo not given)
2. O=S(=O)(O)c1ccc(-c2ccc([As](=O)(O)O)cc2)cc1
3. COC(=O)C[Se]C(=O)c1ccccc1OC(C)=O

[94.7, 106, 71.9]

----------
system: MDA-MB-435 melanoma; assay: NCI-60 one-dose screen, 48 h; conditions: 10 µM unless noted
Compounds without any hit were thinned out: in the full panel of roughly 83,000, 20% have a hit. The source made the active and inactive calls. The calls were made as follows: active = growth percent below 10; inactive = the rest.
Pick one: Y = active, N = inactive

As a guide, the following entries are already answered.
C[C@]12CCc3sc(-c4ccc(Cl)cc4)nc3C1=CC[C@@H]1[C@@H]2CC[C@]2(C)C(=O)CC[C@@H]12	N
C=CC(O)CN1CC1CC (stereo not given)	N
CC(C)Nc1ccc(Nc2ccccc2)cc1	N
CC(C)(C)[Si](C)(C)OC1[C@@H](O[Si](C)(C)C(C)(C)C)[C@@H](CNC(=O)NC(=O)CF)O[C@H]1n1cnc2c(NC(=O)Nc3ccccc3)ncnc21 (stereo not given in full)	N

Identify the outcome logged in this assay for the compound shown: `COc1cc(/C=C\c2cc(OC)c(OC)c(OC)c2)cc(N/C=C\C(=O)c2ccc(OC(F)(F)F)cc2)c1OC` Y

----------
tested on: HL-60(TB) leukemia; assay: NCI-60 one-dose screen, 48 h (100 = growth as untreated, 0 = no growth, -100 = all killed); conditions: 10 µM unless noted
Compounds without any hit were thinned out: in the full panel of roughly 83,000, 20% have a hit.
metric: growth (%)
Numbers only, in %.

Some compounds with recorded growth:
O=C1c2[nH]cc(CN[C@@H]3CCCN3)c2C(=O)c2c1c(O)c1ccccc1c2O	-73
CCCCOc1nc2ccc(Cl)cc2cc1/C=C/C(=O)/C=C1/CC(c2cc3cc(Cl)ccc3nc2OCCCC)Nc2ccccc2N1 (stereo unspecified)	101
COc1ccc(C2Nc3ncnc(N)c3N=C3c4ccccc4C(=O)C32)cc1 (stereo unspecified)	58.8
O=S(=O)(NCCO)c1ccc(OCCOc2ccc(S(=O)(=O)NCCO)cc2)cc1	68.4
Cc1ccc(N)cc1[N+](=O)[O-]	96.5
O=C1OC(/C=C/c2ccccc2)=NC/1=C/c1ccccc1[N+](=O)[O-]	96.2
COc1cc2cc(Oc3ccc(NC(=O)c4ccccc4)cc3)c(C)nc2cc1OC	100
CC/C(C)=C(\C)C(=O)O	100
Cc1nn(-c2ccc(Cl)cc2)c2ncnc(N/N=C/c3cccc([N+](=O)[O-])c3)c12	31
O=[N+]([O-])c1ccc(OCCO)cc1	125

Working through the 3 compounds below one at a time, give growth for each.
1. CCN1C(=O)N(CC)C2C1NC(=O)N2/N=C/C=C/c1ccccc1 (stereo unspecified)
2. FC(F)(F)c1cc(Nc2ccc3c(OCCCN4CCOCC4)cccc3n2)ccc1Cl
3. c1ccc2c(N=NSc3ncnc4nc[nH]c34)c3ccccc3nc2c1

1: 0.782; 2: 63.3; 3: -5.76

Working through the 4 compounds below one at a time, give growth for each.
1. C1=C(c2ccccc2)c2ccccc2C1
2. COc1ccc2[nH]c(=O)c3c4ccccc4cn3c2c1
3. CN(C)c1ccc(N=C2C=CC(=O)C=C2)cc1
4. CC(=O)Nc1cccc(-n2c(=O)n(C3CC3)c(=O)c3c(Nc4ccc(I)cc4F)n(C)c(=O)c(C)c32)c1

[95.1, -28.4, 111, 27.1]

----------
system: IGROV1 ovarian; assay: NCI-60 one-dose screen, 48 h (100 = growth as untreated, 0 = no growth, -100 = all killed); settings: 10 µM
Compounds without any hit were thinned out: in the full panel of roughly 83,000, 20% have a hit.
Provide the reported growth of each item.
One number for each entry, in %.

Some compounds with recorded growth:
CC(=O)C1CCC2C3CC=C4CC(OC(=O)Cc5ccc(N(CCCl)CCCl)cc5)CCC4(C)C3CCC12C (centres undefined)	97.3
CC[C@@H](C)/C=C(C)/C=C/C(=O)c1c(O)c(-c2ccc(O)cc2)cn(O)c1=O	5.54

Working through the 2 compounds below one at a time, give growth for each.
1. COC1=CC(=O)OC(CCc2ccc3c(c2)OCO3)C1 (centres undefined)
2. O=[N+]([O-])c1cccc([As]=[As]c2cccc([N+](=O)[O-])c2)c1 (centres undefined)

1. 116
2. -57.8

Working through the 5 compounds below one at a time, give growth for each.
1. ClCCN(CCCl)c1nc(Cl)c(C2CC(c3ccccc3)=NN2c2ccccc2)s1 (centres undefined)
2. CC(=O)O[C@H]1CCC2(C)C(=CCC3C2CCC2(C)/C(=N/OC(=O)c4ccc(N(CCCl)CCCl)cc4)CCC32)C1 (some centres undefined)
3. COc1ccc(C2=NN(c3ccccc3)C(c3sc(N(CCCl)CCCl)nc3Cl)C2)cc1 (centres undefined)
4. C1CNC2CCCC2C1 (centres undefined)
5. CC(C)[C@]12O[C@H]1[C@@H]1O[C@]13[C@]1(O[C@H]1C[C@H]1C4=C(CC[C@@]13C)C(=O)OC4)[C@@H]2OC(=O)OC(C)(C)C

[107, 11.6, 121, 117, -5.58]

----------
test system: RXF 393 renal; assay: NCI-60 one-dose screen, 48 h; details: 10 µM unless noted
The panel holds about 83,000 compounds, 20% with a hit somewhere; the sample as a whole holds those more often. The source made the active and inactive calls. Rule for the calls: active = growth percent below 10; inactive = the rest.
Pick one: label 1 for active, label 0 for inactive

As a guide, the following entries are already answered.
CCCCN(CCCC)CC(O)c1ccccc1 (stereo unspecified)	label 0
CCC(CO)NC1CCCCC1 (stereo unspecified)	label 0
CC[C@H](C)[C@H](NC(=O)Nc1ccccc1)C(=O)N(C)[C@H](C[C@@H](OC(C)=O)c1nc(C(=O)N[C@@H](Cc2ccccc2)C[C@H](C)C(=O)OC)cs1)C(C)C	label 1
O=C1NC(=O)C(=Cc2cn(Cc3ccccc3)c3ccccc23)C(=O)N1	label 0
CCC(C)(C)O	label 0

Turning to the following compound.
Identify the outcome logged in this assay for the compound shown: CC1([N+](=O)[O-])COP(=O)(Nc2ccc(F)cc2)OC1 (stereo unspecified) label 0

----------
Provide the reported growth of each item.
Tested on: SF-539 CNS
Test: NCI-60 one-dose screen, 48 h (100 = growth as untreated, 0 = no growth, -100 = all killed)
Details: 10 µM unless noted
Description: Cells are grown in 96 well plates and exposed to the test compound for 48 hours. Compounds are tested at a single concentration, which is 10^-5 M for most compounds. The reported endpoint is percent growth (GI% or GIPRCNT), where numbers from 0 - 100% represent growth inhibition, and numbers from -100% - 0 represent cell death. For example, a value of 40 represents 60% growth inhibition. A value of 0 means no net growth occurred over the course of the experiment. […]
About 83,000 compounds went through this panel and 20% of them were active in at least one assay; those are over-represented in the sample as a whole.
Give bare numbers, in %.

CC1(C)N=C(N)N=C(N)N1c1ccc(CCC(=O)Nc2cccc(S(=O)(=O)F)c2)cc1	39.4
CC12CCC(=O)C=C1C(O)CC1C2CCC2(C)C(O)CCC12 (stereo unspecified)	98.7
CC(=O)Oc1ccc(Cl)cc1	89.1
CC(C)CCC[C@@H](C)[C@H]1CC[C@H]2[C@@H]3CC=C4C[C@@H](OC(=O)Cc5ccc(N(CCCl)CCCl)cc5)CC[C@]4(C)[C@H]3CC[C@]12C	94.1
O=C(CCF)c1ccc(O)cc1	103

Working through the 4 molecules below one at a time, give growth for each.
1. CCOc1ccc(C(O)CN(C)Cc2ccccc2)cc1Cl (stereo unspecified)
2. CN1CCN(C(=O)COc2ccc(/C=C3\CC4C5CC=C6CC(Cl)CCC6(C)C5CCC4(C)C3=O)cc2)CC1 (stereo unspecified)
3. Nc1cccc(CC(=O)Nc2ccc(S(=O)(=O)F)cc2)c1
4. Fc1ccc(C2=NN(c3ccccc3)C(c3sc(N(CCCl)CCCl)nc3Cl)C2)cc1 (stereo unspecified)

1. 108
2. 93.6
3. 97.4
4. 101

Working through the 5 molecules below one at a time, give growth for each.
1. CCCCn1cc(C(=O)/C(C#N)=C/c2cc3ccccc3nc2Cl)c2cc(OC)ccc21
2. CCOC(=O)/C=C(\C)Nc1ccc(N/C(C)=C/C(=O)OCC)c2c1Oc1ccccc1O2
3. CC(=O)C1CCC2C3CC=C4CC(OC(=O)Cc5ccc(N(CCCl)CCCl)cc5)CCC4(C)C3CCC12C (stereo unspecified)
4. CC[C@@]1(C2O[C@@H](C3O[C@@](O)(CC)[C@H](C)C[C@@H]3C)C[C@@H]2C)CC[C@H]([C@]2(C)CCC3(C[C@H](O)[C@@H](C)[C@@H]([C@H](C)[C@@H](OC)[C@H](C)C(=O)O)O3)O2)O1 (stereo partly specified)
5. CCC(/C=C(C)/C=C/C(=O)c1c(O)c(-c2ccc(O)cc2)c[nH]c1=O)CO (stereo unspecified)

1. 89
2. 105
3. 79.5
4. 12.6
5. 77.4
